All values here come from paper PMC10254314.

test system: poly A–poly U (pApU) (RNA, polymer) A/U; test: UV thermal melting at 260 nm; conditions: Na+ (sodium cacodylate, I = 0.05 M), pH 7, r = [compound]/[polynucleotide] = 0.3, polynucleotide 2 × 10^-5 M, per base
Assay Endpoint: ΔTm (°C)
# output: bare number, implied unit °C

{"Smiles Record": "COc1ccc(Nc2ccc(C3=[N+](C)Cc4cccc(Nc5ccc(OC)cc5)c4S3)cc2)cc1", "Unit Of Measure": "°C", "ΔTm": "−1.2"}

Turning to the following compound.
Task: # lookup: ΔTm of COc1cc2c(cc1OC)SC(c1ccc(NCc3cccc(C)c3)cc1)=[N+](C)C2
Output: −1.5
